Where these numbers come from: the NIST ThermoML archive (doi:10.1021/je100835n)

# MEASUREMENT CONDITIONS: 358.15 K; Liquid; Gas chromatography
Everything with vapor or sublimation pressure lower than 0.02 kPa is no; everything else, including exactly 0.02 kPa, is yes.

Prompt: # check: vapor or sublimation pressure of C[Si]1(C)O[Si](C)(C)O[Si](C)(C)O[Si](C)(C)O[Si](C)(C)O[Si](C)(C)O[Si](C)(C)O1 [tetradecamethylcycloheptasiloxane] is greater than or equal to 0.02 kPa
Response: yes

Prompt: # repeat for C[Si](C)(C)O[Si](C)(C)O[Si](C)(C)O[Si](C)(C)O[Si](C)(C)O[Si](C)(C)O[Si](C)(C)O[Si](C)(C)C [octadecamethyloctasiloxane]
Response: no

Prompt: # repeat for C[Si]1(C)O[Si](C)(C)O[Si](C)(C)O[Si](C)(C)O[Si](C)(C)O[Si](C)(C)O[Si](C)(C)O[Si](C)(C)O1 [hexadecamethylcyclooctasiloxane]
Response: no

Prompt: # repeat for C[Si]1(C)O[Si](C)(C)O[Si](C)(C)O[Si](C)(C)O[Si](C)(C)O[Si](C)(C)O[Si](C)(C)O[Si](C)(C)O[Si](C)(C)O[Si](C)(C)O1 [icosamethylcyclodecasiloxane]
Response: no

Prompt: # repeat for C[Si](C)(C)O[Si](C)(C)O[Si](C)(C)O[Si](C)(C)O[Si](C)(C)O[Si](C)(C)O[Si](C)(C)O[Si](C)(C)O[Si](C)(C)C [eicosamethylnonasiloxane]
Response: no

Prompt: # repeat for C[Si](C)(C)O[Si](C)(C)O[Si](C)(C)O[Si](C)(C)O[Si](C)(C)C [dodecamethylpentasiloxane]
Response: yes

Prompt: # repeat for C[Si](C)(C)O[Si](C)(C)O[Si](C)(C)O[Si](C)(C)O[Si](C)(C)O[Si](C)(C)C [tetradecamethylhexasiloxane]
Response: yes

Prompt: # repeat for C[Si]1(C)O[Si](C)(C)O[Si](C)(C)O[Si](C)(C)O[Si](C)(C)O[Si](C)(C)O1 [dodecamethylcyclohexasiloxane]
Response: yes

Prompt: # repeat for C[Si](C)(C)O[Si](C)(C)O[Si](C)(C)O[Si](C)(C)O[Si](C)(C)O[Si](C)(C)O[Si](C)(C)C [hexadecamethylheptasiloxane]
Response: no

---

# MEASUREMENT CONDITIONS: 438.15 K; Liquid; Gas chromatography
VALUE KIND: vapor or sublimation pressure (kPa)
The reply should contain only the number, in kPa.

Prompt: What value of vapor or sublimation pressure has been recorded for this entry: C[Si](C)(C)O[Si](C)(C)O[Si](C)(C)O[Si](C)(C)O[Si](C)(C)O[Si](C)(C)O[Si](C)(C)O[Si](C)(C)O[Si](C)(C)O[Si](C)(C)O[Si](C)(C)O[Si](C)(C)O[Si](C)(C)C
Response: 0.01965

Prompt: # repeat for C[Si](C)(C)O[Si](C)(C)O[Si](C)(C)O[Si](C)(C)O[Si](C)(C)O[Si](C)(C)O[Si](C)(C)O[Si](C)(C)O[Si](C)(C)O[Si](C)(C)O[Si](C)(C)O[Si](C)(C)C
Response: 0.04441

Prompt: # repeat for C[Si](C)(C)O[Si](C)(C)O[Si](C)(C)O[Si](C)(C)O[Si](C)(C)O[Si](C)(C)O[Si](C)(C)C
Response: 2.645
